System: NCI-H1618 multicellular tumor spheroid viability
Assay: Anticancer human tumor NCI-H1618 cell line growth inhibition; active = viability on the fitted dose curve at most 10% of control; inactive = the rest;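 note: spheroids exposed to agents for 7 days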
Details: second compound 0.0003 µM; first compound 0.0949 µM
Labels: active, inactive

{"molecule": "Cc1sc2c(c1C)C(c1ccc(Cl)cc1)=NC(CC(=O)Nc1ccc(O)cc1)c1nnc(C)n1-2 (centres undefined) + COc1cc2c(cc1O)CCNC21CSC2c3c(OC(C)=O)c(C)c4c(c3C(COC1=O)N1C(O)C3Cc5cc(C)c(OC)c(O)c5C(C21)N3C)OCO4", "assignedCategory": "active"}
{"molecule": "Cn1ncnc1[C@H]1c2n[nH]c(=O)c3cc(F)cc(c23)N[C@@H]1c1ccc(F)cc1 + COc1cc2c(cc1O)CCNC21CSC2c3c(OC(C)=O)c(C)c4c(c3C(COC1=O)N1C(O)C3Cc5cc(C)c(OC)c(O)c5C(C21)N3C)OCO4", "assignedCategory": "active"}
{"molecule": "O=C(c1cc(Cc2n[nH]c(=O)c3ccccc23)ccc1F)N1CCN(C(=O)C2CC2)CC1 + COc1cc2c(cc1O)CCNC21CSC2c3c(OC(C)=O)c(C)c4c(c3C(COC1=O)N1C(O)C3Cc5cc(C)c(OC)c(O)c5C(C21)N3C)OCO4", "assignedCategory": "inactive"}
{"molecule": "CNCc1ccc(-c2cc(-c3nc(-c4ccc(S(=O)(=O)C(C)C)cc4)cnc3N)on2)cc1 + COc1cc2c(cc1O)CCNC21CSC2c3c(OC(C)=O)c(C)c4c(c3C(COC1=O)N1C(O)C3Cc5cc(C)c(OC)c(O)c5C(C21)N3C)OCO4", "assignedCategory": "inactive"}

----------
System: NCI-H1618 multicellular tumor spheroid viability
Assay: Anticancer human tumor NCI-H1618 cell line growth inhibition;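 note: spheroids exposed to agents for 7 days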
Details: second compound 31.6 µM; first compound 0.1 µM; stronger effect = lower value
measurementKind: viability, T/C (%)

{"molecule": "COc1cc(C)[nH]c(=O)c1CN1CCc2c(Cl)cc(C(OC)C3COC3)c(Cl)c2C1=O (stereo unspecified) + Cn1nnc2c(C(N)=O)ncn2c1=O", "resultUnit": "%", "experimentalResult": 13.3}
{"molecule": "[2H]c1nc(C)nc([2H])c1-c1cc(NC[C@@H](C)c2cccc3c(C(=O)NC)ccnc23)ncn1 + Cn1nnc2c(C(N)=O)ncn2c1=O", "resultUnit": "%", "experimentalResult": 19.9}
{"molecule": "Cc1cc(C)c(CNC(=O)c2cc(-c3ccc(CN4CCOCC4)cc3)cc3c2cnn3C2CCCC2)c(=O)[nH]1 + Cn1nnc2c(C(N)=O)ncn2c1=O", "resultUnit": "%", "experimentalResult": 20.3}
{"molecule": "CC(C)n1c(=O)n(C)c2cnc3cc(F)c(-c4ccc(OCCCN5CCCCC5)nc4)cc3c21 + Cn1nnc2c(C(N)=O)ncn2c1=O", "resultUnit": "%", "experimentalResult": 17.1}
{"molecule": "COc1ccc([C@@H](O)c2cc(-c3ncnc4cc(N5CCOCC5)ccc34)c(F)cc2Cl)nn1 + Cn1nnc2c(C(N)=O)ncn2c1=O", "resultUnit": "%", "experimentalResult": 12.4}
{"molecule": "CC1COCCN1c1cc(-c2ccnn2C)c2ccnc(-c3ccn[nH]3)c2n1 (stereo unspecified) + Cn1nnc2c(C(N)=O)ncn2c1=O", "resultUnit": "%", "experimentalResult": 1.26}

----------
System: NCI-H1618 multicellular tumor spheroid viability
Test: Anticancer human tumor NCI-H1618 cell line growth inhibition;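 note: spheroids exposed to agents for 7 days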
Conditions: curve of first compound; second compound 0.03 µM

{"molecule": "COc1ccc([C@@H](O)c2cc(-c3ncnc4cc(N5CCOCC5)ccc34)c(F)cc2Cl)nn1 + CC[C@@]1(O)C(=O)OCc2c1cc1n(c2=O)Cc2cc3c(CN(C)C)c(O)ccc3nc2-1", "testedSystem": "NCI-H1618 multicellular tumor spheroid viability", "IC50": "< 31.6 nM"}
{"molecule": "CC(C)n1c(=O)n(C)c2cnc3cc(F)c(-c4ccc(OCCCN5CCCCC5)nc4)cc3c21 + CC[C@@]1(O)C(=O)OCc2c1cc1n(c2=O)Cc2cc3c(CN(C)C)c(O)ccc3nc2-1", "testedSystem": "NCI-H1618 multicellular tumor spheroid viability", "IC50": "< 31.6 nM"}
{"molecule": "CC1COCCN1c1cc(-c2ccnn2C)c2ccnc(-c3ccn[nH]3)c2n1 (stereo not drawn) + CC[C@@]1(O)C(=O)OCc2c1cc1n(c2=O)Cc2cc3c(CN(C)C)c(O)ccc3nc2-1", "testedSystem": "NCI-H1618 multicellular tumor spheroid viability", "IC50": "< 31.6 nM"}

----------
viability, T/C values for the compounds below.
System: NCI-H1618 multicellular tumor spheroid viability
Test: Anticancer human tumor NCI-H1618 cell line growth inhibition;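 note: spheroids exposed to agents for 7 days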
Conditions: second compound 31.6 µM; first compound 1 µM; stronger effect = lower value
measurementKind: viability, T/C

{"compound": "COc1cc(C)[nH]c(=O)c1CN1CCc2c(Cl)cc(C(OC)C3COC3)c(Cl)c2C1=O (stereo unspecified) + Cn1nnc2c(C(N)=O)ncn2c1=O", "testedSystem": "NCI-H1618 multicellular tumor spheroid viability", "experimentalResult": "5.57%"}
{"compound": "Cc1cc(C)c(CNC(=O)c2cc(-c3ccc(CN4CCOCC4)cc3)cc3c2cnn3C2CCCC2)c(=O)[nH]1 + Cn1nnc2c(C(N)=O)ncn2c1=O", "testedSystem": "NCI-H1618 multicellular tumor spheroid viability", "experimentalResult": "5.16%"}
{"compound": "CC(C)n1c(=O)n(C)c2cnc3cc(F)c(-c4ccc(OCCCN5CCCCC5)nc4)cc3c21 + Cn1nnc2c(C(N)=O)ncn2c1=O", "testedSystem": "NCI-H1618 multicellular tumor spheroid viability", "experimentalResult": "11.6%"}
{"compound": "CC1COCCN1c1cc(-c2ccnn2C)c2ccnc(-c3ccn[nH]3)c2n1 (stereo unspecified) + Cn1nnc2c(C(N)=O)ncn2c1=O", "testedSystem": "NCI-H1618 multicellular tumor spheroid viability", "experimentalResult": "1.03%"}
{"compound": "[2H]c1nc(C)nc([2H])c1-c1cc(NC[C@@H](C)c2cccc3c(C(=O)NC)ccnc23)ncn1 + Cn1nnc2c(C(N)=O)ncn2c1=O", "testedSystem": "NCI-H1618 multicellular tumor spheroid viability", "experimentalResult": "15.1%"}
{"compound": "COc1ccc([C@@H](O)c2cc(-c3ncnc4cc(N5CCOCC5)ccc34)c(F)cc2Cl)nn1 + Cn1nnc2c(C(N)=O)ncn2c1=O", "testedSystem": "NCI-H1618 multicellular tumor spheroid viability", "experimentalResult": "17.1%"}

----------
System: NCI-H1618 multicellular tumor spheroid viability
Assay: Anticancer human tumor NCI-H1618 cell line growth inhibition;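 note: spheroids exposed to agents for 7 days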
Conditions: second compound 3.16 µM; first compound 1 µM; stronger effect = lower value
measurementKind: viability, T/C (%)

{"compound": "COc1ccc([C@@H](O)c2cc(-c3ncnc4cc(N5CCOCC5)ccc34)c(F)cc2Cl)nn1 + Cn1nnc2c(C(N)=O)ncn2c1=O", "measurementKind": "viability, T/C", "resultUnit": "%", "experimentalResult": 22.2}
{"compound": "Cc1cc(C)c(CNC(=O)c2cc(-c3ccc(CN4CCOCC4)cc3)cc3c2cnn3C2CCCC2)c(=O)[nH]1 + Cn1nnc2c(C(N)=O)ncn2c1=O", "measurementKind": "viability, T/C", "resultUnit": "%", "experimentalResult": 22}
{"compound": "CC(C)n1c(=O)n(C)c2cnc3cc(F)c(-c4ccc(OCCCN5CCCCC5)nc4)cc3c21 + Cn1nnc2c(C(N)=O)ncn2c1=O", "measurementKind": "viability, T/C", "resultUnit": "%", "experimentalResult": 22.2}
{"compound": "CC1COCCN1c1cc(-c2ccnn2C)c2ccnc(-c3ccn[nH]3)c2n1 (stereo unspecified) + Cn1nnc2c(C(N)=O)ncn2c1=O", "measurementKind": "viability, T/C", "resultUnit": "%", "experimentalResult": 1.67}
{"compound": "[2H]c1nc(C)nc([2H])c1-c1cc(NC[C@@H](C)c2cccc3c(C(=O)NC)ccnc23)ncn1 + Cn1nnc2c(C(N)=O)ncn2c1=O", "measurementKind": "viability, T/C", "resultUnit": "%", "experimentalResult": 28.1}
{"compound": "COc1cc(C)[nH]c(=O)c1CN1CCc2c(Cl)cc(C(OC)C3COC3)c(Cl)c2C1=O (stereo unspecified) + Cn1nnc2c(C(N)=O)ncn2c1=O", "measurementKind": "viability, T/C", "resultUnit": "%", "experimentalResult": 10.3}

----------
Tested on: NCI-H1618 multicellular tumor spheroid viability
Assay: Anticancer human tumor NCI-H1618 cell line growth inhibition;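 note: spheroids exposed to agents for 7 days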
Settings: curve of first compound; second compound 0.03 µM
IC50 values for the compounds below.
measurementKind: IC50

{"compound": "Cn1ncnc1[C@H]1c2n[nH]c(=O)c3cc(F)cc(c23)N[C@@H]1c1ccc(F)cc1 + CC[C@@]1(O)C(=O)OCc2c1cc1n(c2=O)Cc2cc3c(CN(C)C)c(O)ccc3nc2-1", "experimentalResult": "< 9.49 nM"}
{"compound": "O=C(c1cc(Cc2n[nH]c(=O)c3ccccc23)ccc1F)N1CCN(C(=O)C2CC2)CC1 + CC[C@@]1(O)C(=O)OCc2c1cc1n(c2=O)Cc2cc3c(CN(C)C)c(O)ccc3nc2-1", "experimentalResult": "< 94.9 nM"}
{"compound": "Cc1sc2c(c1C)C(c1ccc(Cl)cc1)=NC(CC(=O)Nc1ccc(O)cc1)c1nnc(C)n1-2 (centres undefined) + CC[C@@]1(O)C(=O)OCc2c1cc1n(c2=O)Cc2cc3c(CN(C)C)c(O)ccc3nc2-1", "experimentalResult": "< 9.49 nM"}
{"compound": "COc1cc(C)[nH]c(=O)c1CN1CCc2c(Cl)cc(C(OC)C3COC3)c(Cl)c2C1=O (centres undefined) + CC[C@@]1(O)C(=O)OCc2c1cc1n(c2=O)Cc2cc3c(CN(C)C)c(O)ccc3nc2-1", "experimentalResult": "< 31.6 nM"}

From: PubChem BioAssay AID1845206
